These data points were gathered from patent US20200237742A1.

Experiment: Intravenous pharmacokinetic study (KP415.A03) in recreational stimulant users
Conditions: human, in vivo, iv
value.kind: AUCinf, GLSM (ng·h/mL)

[[record]]
compound = "COC(=O)[C@H](c1ccccc1)[C@H]1CCCCN1C(=O)OC[n+]1cccc(C(=O)N[C@@H](CO)C(=O)O)c1.[Cl-] [serdexmethylphenidate chloride]"
value_kind = "AUCinf, GLSM"
observed_result = 28.9


###

Test: Intravenous pharmacokinetic study (KP415.A03) in recreational stimulant users
Conditions: human, in vivo, iv
value.kind: AUClast, GLSM (ng·h/mL)

[[record]]
compound = "COC(=O)[C@H](c1ccccc1)[C@H]1CCCCN1C(=O)OC[n+]1cccc(C(=O)N[C@@H](CO)C(=O)O)c1.[Cl-] [serdexmethylphenidate chloride]"
unit_spec = "ng·h/mL"
observed_result = 23.8

